PROTOCOL NOTES: Plasma pharmacokinetics by validated LC–MS/MS
Assay type: in vivo, human
MEASUREMENT SETUP: human, plasma, oral, 30 mg, Median Tmax, SAD part (day 1); 30 mg; n = 6
MEASURED QUANTITY: Tmax (min)
I only need the number, in min, no unit after it.

Challenge: Would you mind telling me what Tmax value was observed for `CC#CC(=O)N[C@H]1CCCN(c2c(F)cc(C(N)=O)c3[nH]c(C)c(C)c23)C1` ?
Response given: 30

----------
PROTOCOL NOTES: Plasma pharmacokinetics by validated LC–MS/MS
Type: in vivo, human
MEASUREMENT SETUP: human, plasma, oral, 10 mg, GM AUCinf, SAD part (day 1); 10 mg; n = 6
MEASURED QUANTITY: AUC(0-inf)
# number then unit; no other words

Challenge: Would you mind telling me what AUC(0-inf) value was observed for `CC#CC(=O)N[C@H]1CCCN(c2c(F)cc(C(N)=O)c3[nH]c(C)c(C)c23)C1` ?
Response given: 100 ng·h/mL

----------
PROTOCOL NOTES: Plasma pharmacokinetics by validated LC–MS/MS
Type: in vivo, human
MEASUREMENT SETUP: human, plasma, oral, 10 mg, Median Tmax, JMAD part (day 14); 10 mg QD; n = 6
MEASURED QUANTITY: Tmax (min)
I only need the number, in min, no unit after it.

Challenge: Would you mind telling me what Tmax value was observed for CC#CC(=O)N[C@H]1CCCN(c2c(F)cc(C(N)=O)c3[nH]c(C)c(C)c23)C1 [Branebrutinib] ?
Response given: 30

----------
PROTOCOL NOTES: Plasma pharmacokinetics by validated LC–MS/MS
Format: in vivo, human
MEASUREMENT SETUP: human, plasma, oral, 10 mg, GM AUCinf, JMAD part (day 14); 10 mg QD; n = 6
MEASURED QUANTITY: AUC(0-inf) (ng·h/mL)
I only need the number, in ng·h/mL, no unit after it.

Challenge: Would you mind telling me what AUC(0-inf) value was observed for `CC#CC(=O)N[C@H]1CCCN(c2c(F)cc(C(N)=O)c3[nH]c(C)c(C)c23)C1` ?
Response given: 139

----------
PROTOCOL NOTES: Plasma pharmacokinetics by validated LC–MS/MS
Type: in vivo, human
MEASUREMENT SETUP: human, plasma, oral, 0.3 mg, GM Cmax, JMAD part (day 14); 0.3 mg QD; n = 6
MEASURED QUANTITY: Cmax (ng/mL)
I only need the number, in ng/mL, no unit after it.

Challenge: Would you mind telling me what Cmax value was observed for `CC#CC(=O)N[C@H]1CCCN(c2c(F)cc(C(N)=O)c3[nH]c(C)c(C)c23)C1` ?
Response given: 2

----------
PROTOCOL NOTES: Plasma pharmacokinetics by validated LC–MS/MS
Assay type: in vivo, human
MEASUREMENT SETUP: human, plasma, oral, 3 mg, Median Tmax, MAD part (day 14); 3 mg QD; n = 6
MEASURED QUANTITY: Tmax (min)
I only need the number, in min, no unit after it.

Challenge: Would you mind telling me what Tmax value was observed for `CC#CC(=O)N[C@H]1CCCN(c2c(F)cc(C(N)=O)c3[nH]c(C)c(C)c23)C1` ?
Response given: 30

----------
PROTOCOL NOTES: Plasma pharmacokinetics by validated LC–MS/MS
Type: in vivo, human
MEASUREMENT SETUP: human, plasma, oral, 10 mg, Median Tmax, MAD part (day 14); 10 mg QD; n = 5
MEASURED QUANTITY: Tmax

Challenge: Would you mind telling me what Tmax value was observed for `CC#CC(=O)N[C@H]1CCCN(c2c(F)cc(C(N)=O)c3[nH]c(C)c(C)c23)C1` ?
Response given: 30 min
